# SYSTEM_NAME: Human neutrophil elastase (Homo sapiens, UniProt P08246 P08246:30-267)
# Sequence (P08246 30-267, one chain of several): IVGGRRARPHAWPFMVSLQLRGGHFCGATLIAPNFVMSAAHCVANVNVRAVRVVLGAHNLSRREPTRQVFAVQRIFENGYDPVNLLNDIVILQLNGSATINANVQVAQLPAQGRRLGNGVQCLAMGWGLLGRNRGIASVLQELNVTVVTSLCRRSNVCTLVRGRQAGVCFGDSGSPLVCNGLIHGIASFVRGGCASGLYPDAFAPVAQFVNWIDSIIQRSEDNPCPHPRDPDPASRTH
# METHOD_DESCRIPTION: filter; 3'-truncated
# COND: tags: Athens Research and Technology
Consider the following binders; for each one, report its pKd.
Formally, pKd is defined as -log10 of the concentration c, with c in mol/L.

Which value of pKd has been reported for ligand 12 3'-truncated (ssRNA, 2'-NH2 all pyrimidines) RNA: GGGAGCUCAGAAUAAACGCUCAAGAGUAGGCUUGACGCCUGGGGGGGUAUGGCUUCGACUGCG in the records? 8.00

Need pKd, item ligand 9 3'-truncated (ssRNA, 2'-NH2 all pyrimidines) RNA: GGGAGCUCAGAAUAAACGCUCAAGGAAUGAAUGUGAUGAACAGGUGUCGGGGUGGAUGGGUGG 6.00

For the binder ligand 19 3'-truncated (ssRNA, 2'-NH2 all pyrimidines) RNA: GGGAGCUCAGAAUAAACGCUCAAUGCCCGGCAGUACUGCACGGCCUCGGGGGGGACCAGGGAG , what pKd is on record? 6.19

These data points were gathered from patent US5472841.
